Here's what we have: pIC50 numbers for JNK1 (Homo sapiens, UniProt P45983).
Reminder that pIC50 is minus the log10 of a molar concentration.

Recorded pIC50 for CCNc1nccc(-c2c(-c3ccc(F)cc3)nc3n2[C@H](Cn2cccc2)CC3)n1 , please?
7.57

Same question, Fc1ccc(-c2nc3n(c2-c2ccnc(NC4CCC4)n2)[C@H](COc2ccnc4ccccc24)CC3)cc1 this time
6.60

Another: CCNc1nccc(-c2c(-c3ccc(F)cc3)nc3n2[C@H](COc2ncccn2)CC3)n1
6.50

For Fc1ccc(-c2nc3n(c2-c2ccnc(NC4CCC4)n2)[C@H](Cn2ccnc2)CC3)cc1 then?
7.66

Okay, and CCNc1nccc(-c2c(-c3ccc(F)cc3)nc3n2[C@H](Cn2ccc4cccc(F)c42)CC3)n1 ?
6.90

Now consider O=C(NC[C@@H]1CCc2nc(-c3ccc(F)cc3)c(-c3ccnc(NC4CCC4)n3)n21)c1ccccc1 and answer again.
6.39

Next: CCCNc1nccc(-c2c(-c3ccc(F)cc3)nc3n2[C@H](COc2ccc4ccccc4n2)CC3)n1
6.74

And for O=C1CCC(=O)N1C[C@@H]1CCc2nc(-c3ccc(F)cc3)c(-c3ccnc(NC4CCC4)n3)n21 ?
7.22

Now try COc1ccc(CSC[C@@H]2CCc3nc(-c4ccc(F)cc4)c(-c4ccnc(NC5CCC5)n4)n32)cc1 .
7.03

====

// values below are pIC50; system is JNK3 (Homo sapiens, UniProt P53779)
Sequence (P53779 whole entry): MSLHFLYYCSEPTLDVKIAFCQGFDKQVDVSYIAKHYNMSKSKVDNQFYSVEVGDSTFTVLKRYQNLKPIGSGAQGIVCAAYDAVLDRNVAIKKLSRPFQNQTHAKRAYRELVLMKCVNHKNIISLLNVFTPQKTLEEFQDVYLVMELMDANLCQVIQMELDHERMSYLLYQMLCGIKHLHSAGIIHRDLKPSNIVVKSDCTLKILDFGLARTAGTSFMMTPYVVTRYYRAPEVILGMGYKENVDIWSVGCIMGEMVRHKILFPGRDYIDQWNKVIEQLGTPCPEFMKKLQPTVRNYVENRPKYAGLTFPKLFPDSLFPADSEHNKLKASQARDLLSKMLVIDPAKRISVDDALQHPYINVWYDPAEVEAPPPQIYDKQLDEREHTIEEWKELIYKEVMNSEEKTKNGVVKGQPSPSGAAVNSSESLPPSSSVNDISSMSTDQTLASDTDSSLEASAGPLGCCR
Just so you know, pIC50 here is -log10 of the concentration in molar units; reply with that number alone.

Item CCCNc1nccc(-c2c(-c3ccc(F)cc3)nc3n2[C@H](Cn2ccc4ccccc42)CC3)n1 has what recorded pIC50?
7.04

Item: CCCNc1nccc(-c2c(-c3ccc(F)cc3)nc3n2[C@@H](Cn2ccc4ccccc42)CC3)n1
6.82

Record: COc1ccc(COC[C@@H]2CCc3nc(-c4ccc(F)cc4)c(-c4ccnc(NC5CCC5)c4)n32)cc1
7.64

How about Fc1ccc(SC[C@@H]2CCc3nc(-c4ccc(F)cc4)c(-c4ccnc(NC5CCC5)n4)n32)cc1 ?
8.10

Request: Fc1ccc(-c2nc3n(c2-c2ccnc(NC4CCC4)n2)[C@H](/C=C/c2cccs2)CC3)cc1
7.28

Also need CCNc1nccc(-c2c(-c3ccc(F)cc3)nc3n2[C@H](Cn2cccc2)CC3)n1 , thanks.
7.85

Same thing, different molecule: O=C(NC[C@@H]1CCc2nc(-c3ccc(F)cc3)c(-c3ccnc(NC4CCC4)n3)n21)c1ccccc1
7.27

Thanks! And CCNc1nccc(-c2c(-c3ccc(F)cc3)nc3n2[C@H](CN2C(=O)CCC2=O)CC3)n1 ?
7.77

Also Fc1ccc(-c2nc3n(c2-c2ccnc(NC4CCC4)n2)[C@H](CNc2ccccn2)CC3)cc1 ?
7.42

For O=C1CCC(=O)N1C[C@@H]1CCc2nc(-c3ccc(F)cc3)c(-c3ccnc(NC4CCC4)n3)n21 then?
8.22

====

Hi! I'm sharing some pIC50 results obtained with JNK2 (Homo sapiens).
Sequence (P45984 whole entry): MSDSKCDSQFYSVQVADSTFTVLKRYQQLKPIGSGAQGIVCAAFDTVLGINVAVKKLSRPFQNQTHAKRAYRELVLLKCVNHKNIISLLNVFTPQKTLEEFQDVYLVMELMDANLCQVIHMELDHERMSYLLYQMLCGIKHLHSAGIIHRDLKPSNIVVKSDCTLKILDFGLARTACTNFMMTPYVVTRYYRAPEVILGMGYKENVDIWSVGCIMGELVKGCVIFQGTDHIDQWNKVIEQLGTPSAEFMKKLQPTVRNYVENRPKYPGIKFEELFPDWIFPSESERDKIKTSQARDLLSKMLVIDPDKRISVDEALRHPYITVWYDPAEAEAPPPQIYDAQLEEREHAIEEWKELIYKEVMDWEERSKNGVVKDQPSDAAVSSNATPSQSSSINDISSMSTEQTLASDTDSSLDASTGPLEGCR
In textbook form, pIC50 equals minus log to base ten of the concentration in mol/L.

Find the recorded pIC50 belonging to CCNc1nccc(-c2c(-c3ccc(F)cc3)nc3n2[C@H](Cn2ccc4cccc(F)c42)CC3)n1 and report it.
6.90

Cc1cc(OC[C@@H]2CCc3nc(-c4ccc(F)cc4)c(-c4ccnc(NC5CCC5)n4)n32)c2ccccc2n1 , same question.
7.52

Now try Fc1ccc(-c2nc3n(c2-c2ccnc(NC4CCC4)n2)[C@H](CNc2ccccn2)CC3)cc1 .
6.90

Request: CCNc1nccc(-c2c(-c3ccc(F)cc3)nc3n2[C@H](COc2ncccn2)CC3)n1
6.90

Could you do the same for CCCNc1nccc(-c2c(-c3ccc(F)cc3)nc3n2[C@H](COc2ccc4ccccc4n2)CC3)n1 , please?
7.28

Source listed as patent US7314940B2.
